Data provenance is PubChem BioAssay (NCI).

Tested on: LOX IMVI melanoma
Experiment: NCI tumour cell line growth inhibition, 48 h
OUTCOME_MEASURE: TGI

As a guide, the following entries are already answered.
1) CCN1CCN(Cc2ccc(NC(=O)Nc3nc4ccc(Oc5ccnc(C(=O)NC)c5)cc4s3)cc2C(F)(F)F)CC1; 3.17 µM
2) N/C(=N\NS(=O)(=O)c1ccccc1)Oc1ccc(Br)cc1Br; > 100 µM
3) CS[C@]12[C@@H]3C(=O)N(C)C(=O)[C@@H]3[C@](C)(C(=O)N1C)C(=O)N2c1ccccc1; > 100 µM
4) [O-]c1ccccc1C=Nc1ccc2c(c1)CCC2.[O-]c1ccccc1C=Nc1ccc2c(c1)CCC2.[O]=[U+2]=[O]; > 100 µM
5) CC[C@@]1(OC(=O)CN)C(=O)OCc2c1cc1n(c2=O)Cc2c-1nc1cc3c(cc1c2CCl)OCO3; 5.03 µM

The reported TGI value, LOX IMVI melanoma, for COc1ccc(C(Cc2ccccc2)C2NC(=S)NC2=O)cc1 (stereo not given) reads > 25 µM

The reported TGI value, LOX IMVI melanoma, for COC(=O)CCC12CCC(=O)C1[C@@H](C(=O)OC)C[C@H]2C(=O)OC (stereo not given in full) reads > 100 µM

The reported TGI value, LOX IMVI melanoma, for O=c1cc(-c2ccc(O)cc2)oc2cc(O[C@@H]3O[C@H](CO)[C@@H](O)[C@H](O)[C@H]3O)cc(O)c12 reads > 100 µM

The reported TGI value, LOX IMVI melanoma, for COC(=O)CCc1c(Cc2ccc[nH]2)[nH]c(C(=O)OCc2ccccc2)c1C reads 35.1 µM

The reported TGI value, LOX IMVI melanoma, for CCOC(=O)CCC1(C(=O)OCC)CCCC1=O (stereo not given) reads > 100 µM

The reported TGI value, LOX IMVI melanoma, for NS(=O)(=O)c1ccc(N2N=C3c4ccccc4CC3C2c2cccs2)cc1 (stereo not given) reads 42.6 µM

The reported TGI value, LOX IMVI melanoma, for CN1CCN(CCOc2ccc(-c3cnc4c(-c5cccc(F)c5)cnn4c3)cc2)CC1 reads 3.35 µM

The reported TGI value, LOX IMVI melanoma, for Cc1ccc(N(O)C(C)(C)C)cc1 reads > 100 µM

The reported TGI value, LOX IMVI melanoma, for NCCCCC1NC(=O)C(CC(=O)O)NC(=O)CNC(=O)C(CCCN=C(N)N)NC(=O)C(N)CSSCC(C(=O)O)NC(=O)C(CC(=O)O)NC(=O)C2CCCN2C(=O)CNC1=O (stereo not given) reads > 100 µM

The reported TGI value, LOX IMVI melanoma, for O=C1Nc2cc([N+](=O)[O-])c(Br)cc2C1=O reads 35.2 µM

The reported TGI value, LOX IMVI melanoma, for CNc1ccc2ncccc2c1[N+](=O)[O-] reads > 100 µM

The reported TGI value, LOX IMVI melanoma, for O=C1C(=O)N(c2ccc(Cl)cc2)C(=O)C(=O)C1c1nc2ccccc2s1 reads > 100 µM
